Outcome measure: melting point

Need melting point of O=c1c(-c2ccccc2)cc(Cl)c2n1CCSc1ccsc1-2 , thanks.
179 °C

Would you kindly repeat that for CCCc1nc2c(N)nc3cccnc3c2n1CCCCCC(=O)N1CCOCC1 ?
148 to 150 °C

Would you kindly repeat that for CCCc1c(CSc2nnc(NC(=O)CCC(=O)OCC)s2)ccc(C(C)=O)c1O ?
166 °C

Would you kindly repeat that for CCCCCCCCCCCCCCCCCCOc1cc(C(=O)N(CC(=O)O)CC(=O)O)cc([N+](=O)[O-])c1 ?
110 to 112 °C

Would you kindly repeat that for C#Cc1ccc2c(c1)C(c1ccccc1)=NCc1c(C(=O)NC)ncn1-2 ?
237 to 238 °C

Would you kindly repeat that for CN1C(=O)C([S-])=C(SC(N)=[NH2+])C1=O ?
150 to 152 °C

Would you kindly repeat that for COc1cc(OC)nc(NC(=O)NS(=O)(=O)c2cccc3c2S(=O)(=O)N(C)C3)n1 ?
229 to 231 °C

* * *

Hi there, I'd appreciate the recorded melting point for every entry that follows.

Need melting point of Cc1ccc(N=Nc2ccc(-c3ccc(-c4ccc(N=Nc5ccc(C)cn5)cc4OC(C)C)o3)c(OC(C)C)c2)nc1 , thanks.
185 to 194 °C

Would you kindly repeat that for CCOC(=O)c1ccc(Cn2c(C)nc3cnccc32)cc1 ?
164 to 166 °C

Would you kindly repeat that for CC(C)(CCCC(=O)O)c1ccc2c(c1)C(=O)c1ccc(C(C)(C)CCCC(=O)O)cc1C2=O ?
222 to 224 °C

Would you kindly repeat that for CN(C)c1ccnc(-c2ccncc2)n1 ?
109 to 110 °C

Would you kindly repeat that for CCc1c(CC#N)ccc(O)c1O ?
101 to 103 °C

Would you kindly repeat that for N#Cc1nn(-c2c(Cl)cc(C(F)(F)F)cc2Cl)c(N)c1-c1ccoc1C(F)(F)F ?
155 to 157 °C

Would you kindly repeat that for Cc1c(Cl)cc(C(=O)O)c(Cl)c1N ?
218 to 221 °C

Would you kindly repeat that for O=C(O)c1ccc(C#Cc2ccccc2)cc1 ?
224 to 225 °C

Would you kindly repeat that for COC(=O)c1cc(C(=O)NCCCO)c2cc(Cc3ccc(F)cc3)cnc2c1O ?
167 to 168 °C

Would you kindly repeat that for CNC(=O)OC(Cn1ccnc1)c1ccc(Cl)cc1Cl (stereo unspecified) ?
106 to 108 °C

Would you kindly repeat that for IC#CCOc1ccncc1 ?
140 to 141 °C

Would you kindly repeat that for O=CCCN1CCc2cc(Br)ccc2C1=O ?
93 to 94 °C

Would you kindly repeat that for COC(=O)CCc1oc(-n2ccnc2)nc1-c1ccc(Cl)cc1 ?
95 to 96 °C

Would you kindly repeat that for CC1CC(c2cc3c(C(F)(F)F)cccc3s2)CCN1 (stereo unspecified) ?
106 to 108 °C

Would you kindly repeat that for NC(=O)N1C(=O)Cc2cc(NC(=O)c3ccccc3)ccc21 ?
223 to 226 °C

Would you kindly repeat that for Cc1cc(OCc2cnc(-c3cccc(C(F)(F)F)c3)nc2C2CC2)ccc1OC(C)(C)C(=O)O ?
175 to 176 °C

Would you kindly repeat that for O=C1N(Cc2ccc(OC(F)(F)F)cc2)C(=NCC(F)(F)F)SCN1c1ccccc1 ?
54 to 56 °C

Would you kindly repeat that for NS(=O)(=O)c1cc2cc3c(cc2n1S(=O)(=O)c1ccccc1)OCO3 ?
229 to 232 °C

Would you kindly repeat that for CCCC(=O)N(Cc1cccc2c1S(=O)(=O)N=C2C1=C(O)C(C(C)(C)C)N(Cc2ccc(F)c(C)c2)C1=O)S(C)(=O)=O (stereo unspecified) ?
226 °C

Would you kindly repeat that for COC(=O)C1=C(C)NC(C)=C(C(=O)OCCOc2cccc(CCNCC(O)COc3ccc(COCCOC(C)C)cc3)c2)C1c1cccc([N+](=O)[O-])c1 (stereo unspecified) ?
65 to 67 °C

Would you kindly repeat that for N#CCNC(=O)C(=O)Oc1ccc([N+](=O)[O-])cc1 ?
123 to 124 °C

* * *

Hi there, I'd appreciate the recorded melting point for every entry that follows.

Need melting point of CC(C)(C)C(=O)C(Br)C(c1ccc(Cl)cc1Cl)S(=O)(=O)c1ccc(Cl)cc1 (configuration not stated) , thanks.
184 to 185 °C

Would you kindly repeat that for CC1(C)CCCC(C)(C)N1c1nc(N2CCCC2)cc(N2CCNCC2)n1 ?
134 to 137 °C

Would you kindly repeat that for CCOC(=O)C1CCCN(C(=O)CCn2cnc3c(=O)[nH]cnc32)C1 (configuration not stated) ?
171 to 175 °C

Would you kindly repeat that for O=C(Cc1ccc(CN2CCC(=O)C(C(c3ccccc3)c3ccccc3)C2)cc1)OCC(=O)c1ccccc1 (configuration not stated) ?
99 to 110 °C

Would you kindly repeat that for CCOC(=O)c1c(SC)nn(-c2c(Cl)cc(Cl)cc2Cl)c1C ?
95 to 98 °C

Would you kindly repeat that for CC(Br)=C(c1ccc(N(C)C)cc1)c1ccc(N(C)C)cc1 ?
119 to 122 °C

Would you kindly repeat that for COc1ccccc1-c1ccc(C)n1CC[C@H]1C[C@H](O)CC(=O)O1 (relative stereo) ?
112 to 114 °C

Would you kindly repeat that for Clc1ccc(Nc2nc3ccccc3c3[nH]c(C4CCCC4)nc23)cc1Cl ?
114 to 115 °C

Would you kindly repeat that for CON1C(C)(C)CC(OCC2CO2)CC1(C)C (configuration not stated) ?
47 to 49 °C

Would you kindly repeat that for O=C1CCCCc2cc(Cl)c(Cl)cc21 ?
> 250 °C

Would you kindly repeat that for COc1cccc([C@H]2O[C@H](CC(=O)O)C(=O)N(CC(C)(C)CO)c3ccc(Cl)cc32)c1OC ?
199 to 202 °C

Would you kindly repeat that for COC(=O)c1cc(C)cc(-c2cccs2)c1NS(=O)(=O)c1ccc(OC)cc1 ?
141 °C

Would you kindly repeat that for Cc1c(CN2CCc3c(c4cccc(F)c4n3C)C2=O)ncn1C ?
174 to 175 °C

Would you kindly repeat that for CN1C(=O)[C@@H](NC(=O)[C@H](N)Cc2ccccc2)N=C(C2CCCCC2)c2ccccc21 ?
75 to 78 °C

Would you kindly repeat that for Nc1cccc(C(=O)c2ccc(Cl)cc2)c1 ?
114 to 115 °C

Would you kindly repeat that for COc1ccc(N=Nc2ccc(O)c(C(=O)Nc3ccc4[nH]ncc4c3)c2)cc1 ?
276 to 277 °C

Would you kindly repeat that for c1ccc(N=C2SCS2)nc1 ?
98.7 to 99.7 °C

Would you kindly repeat that for COc1ccc([N+](=O)[O-])c2c1OCC(C(=O)Nc1ccc(N3CCOCC3)cc1)C2 (configuration not stated) ?
238 to 240 °C

Would you kindly repeat that for COc1ccc2c(c1)c(Cc1nc(-c3csc4ccccc34)cs1)c(C)n2C(=O)c1ccc(Cl)cc1 ?
68 to 72 °C

Would you kindly repeat that for COC(=O)C(C)c1ccc(C(=O)c2cccs2)cc1 (configuration not stated) ?
62 °C

Would you kindly repeat that for O=C(c1ccccc1)N1CCCSC1=C[N+](=O)[O-] ?
90 to 92 °C

Would you kindly repeat that for CNC(=O)NC1CCC(=O)c2ccccc21 (configuration not stated) ?
220 to 223 °C

Would you kindly repeat that for C(=Nc1c2c(nc3ccccc13)CCCC2)c1ccccc1 ?
168 to 169 °C

Would you kindly repeat that for O=C1c2ccccc2C(=O)N1c1ccccc1CSc1nccn1-c1ccncc1 ?
145 to 147 °C

Would you kindly repeat that for O=C(O)c1ccnc(-c2ccc(Cl)c(C(=O)NCC34CC5CC(CC(C5)C3)C4)c2)c1 ?
284 to 287 °C

Would you kindly repeat that for COc1ccnc(C(C)O)c1 (single isomer, unassigned; (+)) ?
92 °C

Would you kindly repeat that for O=C(O)CCc1cccc(OCc2nc(-c3ccccc3)c(-c3ccccc3)o2)c1 ?
118 to 120 °C

Would you kindly repeat that for NNc1ccc(C(F)(F)F)c(Cl)c1Cl ?
79 to 80 °C

Would you kindly repeat that for CC(C)COc1cc(N(C)C)ccc1C(=O)c1ccccc1C(=O)O ?
199 to 201 °C

Would you kindly repeat that for CCCCCCCCCCCCCCCCCCc1ccc(S(=O)(=O)Cl)cc1 ?
43 to 44 °C

Would you kindly repeat that for NS(=O)(=O)Oc1ccc(C(=O)c2ccccc2)cc1 ?
131 to 133 °C

Would you kindly repeat that for NNc1nc(C(F)(F)F)nc(-c2ccc(F)cc2)c1-c1ccccc1 ?
175 to 177 °C

Would you kindly repeat that for CCOC(=O)Cc1cccc(NC=O)n1 ?
35 to 38 °C

Would you kindly repeat that for CC(=O)Nc1cc(/C=C/C(=O)NCC(=O)N(C)c2ccc(Cl)c(COc3cccc4ccc(C)nc34)c2Cl)ccn1 ?
115 to 131 °C

Would you kindly repeat that for Cc1c(-c2ccccc2)sc2c1c(=O)c(C(=O)O)cn2Cc1c(F)cccc1F ?
286 to 289 °C

Would you kindly repeat that for COc1cc(C(O)(C(F)(F)F)C(F)(F)F)cc(C)c1OCC(=O)O ?
111 to 113 °C

Would you kindly repeat that for C#CCn1cc(Br)cnc1=O ?
139 to 141 °C
